The entries below come with measured OD450 at 10 nM values attached.
Target: T1, Human CD19-his protein (human, UniProt P15391 20-291)
T1 construct: bought protein; also called recombinant human CD19-His; CD19 full-length protein; not shown: His tag
T1 sequence (looked up): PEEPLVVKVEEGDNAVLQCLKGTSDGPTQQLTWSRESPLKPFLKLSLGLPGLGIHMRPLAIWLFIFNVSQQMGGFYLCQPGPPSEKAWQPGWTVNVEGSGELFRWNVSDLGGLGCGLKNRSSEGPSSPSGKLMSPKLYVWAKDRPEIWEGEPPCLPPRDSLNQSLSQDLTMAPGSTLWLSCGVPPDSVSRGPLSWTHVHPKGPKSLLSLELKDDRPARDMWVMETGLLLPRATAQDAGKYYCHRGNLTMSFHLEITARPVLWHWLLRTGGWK
Assay: ELISA, coated human CD19-His

Use these answered entries as a reference point.
F3.121.4 (antibody, human IgG1, V domains shown, human-murine chimeric antibody, human IgG1 constant; also called chimeric antibody F3.121.4) VH: QVQLQQPGAELVVPGTSVKLSCKASGYTFTNYWMHWVKQRPGQGLEWIGEIDPSDNYANYNQEFQGKATLTVDKSSSTAYMQLSSLTSDDSAVYYCARHDGYFGALDYWGQGTSVTVSS VL: EIVLTQSPTTMAASPGEKITITCSASSSISSNYLHWYQQKPGFSPKFLIYRTSNLASGVPARFSGSGSGTSYSLTIGTMEAEDVATYYCQQASSIPRMFTFGSGTKLEIK : 1.04 OD450
F3.121.4-L3H2 (antibody, mouse IgG1, kappa, V domains shown, humanized antibody of F3.121.4, VL3+VH2, murine IgG1 constant regions) VH: EVQLVQSGAEVKKPGASVKVSCKASGYTFTNYWMHWVRQAPGQGLEWMGEIDPSDNYANYNQEFQGRVTITVDKSASTAYMELSSLRSEDTAVYYCARHDGYFGALDYWGQGTTVTVSS VL: EIVLTQSPDFQSVTPKEKVTITCSASSSISSNYLHWYQQKPDQSPKFLIYRTSNLASGVPSRFSGSGSGTDFTLTINSLEAEDAATYYCQQASSIPRMFTFGQGTKLEIKR : 2.3 OD450

Lookup: Bench note: what OD450 at 10 nM did F3.121.4-L3H1 (antibody, mouse IgG1, kappa, V domains shown, humanized antibody of F3.121.4, VL3+VH1, murine IgG1 constant regions) VH: EVQLVQSGAEVKKPGASVKVSCKASGYTFTNYWMHWVRQAPGQRLEWMGEIDPSDNYANYNQEFQGRVTITVDKSASTAYMELSSLRSEDTAVYYCARHDGYFGALDYWGQGTTVTVSS VL: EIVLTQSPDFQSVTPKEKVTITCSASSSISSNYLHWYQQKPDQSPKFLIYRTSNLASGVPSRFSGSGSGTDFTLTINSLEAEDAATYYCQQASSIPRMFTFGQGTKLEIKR show?
Found: 2.37 OD450
